Hey, just so you know, these numbers are from the supplement of paper PMC8728848.

molecular target: Gal(b1-3)GlcNAc(b1-6)Gal(b1-4)GlcNAc; assay: glycan array binding signal (z-score within array); higher = stronger binding; conditions: glycan notation: IUPAC condensed, linker removed
The sample as a whole holds a higher share of the strongest signals than the screen did.
Reported Endpoint: glycan array binding signal (z-score)
Hey, just send me the number, nothing else.

GET /values?readout=glycan array binding signal (z-score)&item= Eosinophil cationic protein (ECP) (Homo sapiens), P12724 (protein) MVPKLFTSQICLLLLLGLMGVEGSLHARPPQFTRAQWFAIQHISLNPPRCTIAMRAINNYRWRCKNQNTFLRTTFANVVNVCGNQSIRCPHNRTLNNCHRSRFRVPLLHCDLINPGAQNISNCTYADRPGRRFYVVACDNRDPRDSPRYPVVPVHLDTTI
-0.17

# iterate: PhypaEULS3 (Physcomitrella patens) (protein) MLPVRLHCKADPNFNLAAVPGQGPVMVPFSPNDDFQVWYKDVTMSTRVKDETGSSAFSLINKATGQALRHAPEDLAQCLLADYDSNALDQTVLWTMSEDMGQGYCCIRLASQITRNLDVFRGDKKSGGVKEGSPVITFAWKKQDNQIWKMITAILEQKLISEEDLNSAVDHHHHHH
1.01

Same read-out for MFG-E8 (Homo sapiens), Q08431 (protein) MPRPRLLAALCGALLCAPSLLVALDICSKNPCHNGGLCEEISQEVRGDVFPSYTCTCLKGYAGNHCETKCVEPLGLENGNIANSQIAASSVRVTFLGLQHWVPELARLNRAGMVNAWTPSSNDDNPWIQVNLLRRMWVTGVVTQGASRLASHEYLKAFKVAYSLNGHEFDFIHDVNKKHKEFVGNWNKNAVHVNLFETPVEAQYVRLYPTSCHTACTLRFELLGCELNGCANPLGLKNNSIPDKQITASSSYKTWGLHLFSWNPSYARLDKQGNFNAWVAGSYGNDQWLQVDLGSSKEVTGIITQGARNFGSVQFVASYKVAYSNDSANWTEYQDPRTGSSKIFPGNWDNHSHKKNLFETPILARYVRILPVAWHNRIALRLELLGC ?
-0.672

Try Intelectin 1 (Homo sapiens), Q8WWA0 (protein) MNQLSFLLFLIATTRGWSTDEANTYFKEWTCSSSPSLPRSCKEIKDECPSAFDGLYFLRTENGVIYQTFCDMTSGGGGWTLVASVHENDMRGKCTVGDRWSSQQGSKAVYPEGDGNWANYNTFGSAEAATSDDYKNPGYYDIQAKDLGIWHVPNKSPMQHWRNSSLLRYRTDTGFLQTLGHNLFGIYQKYPVKYGEGKCWTDNGPVIPVVYDFGDAQKTASYYSPYGQREFTAGFVQFRVFNNERAANALCAGMRVTGCNTEHHCIGGGGYFPEASPQQCGDFSGFDWSGYGTHVGYSSSREITEAAVLLFYR next.
0.042
